system: 72 kDa heat shock protein (HSP72), recombinant human (human, UniProt P0DMV8 1-641)
Sequence (P0DMV8 whole entry): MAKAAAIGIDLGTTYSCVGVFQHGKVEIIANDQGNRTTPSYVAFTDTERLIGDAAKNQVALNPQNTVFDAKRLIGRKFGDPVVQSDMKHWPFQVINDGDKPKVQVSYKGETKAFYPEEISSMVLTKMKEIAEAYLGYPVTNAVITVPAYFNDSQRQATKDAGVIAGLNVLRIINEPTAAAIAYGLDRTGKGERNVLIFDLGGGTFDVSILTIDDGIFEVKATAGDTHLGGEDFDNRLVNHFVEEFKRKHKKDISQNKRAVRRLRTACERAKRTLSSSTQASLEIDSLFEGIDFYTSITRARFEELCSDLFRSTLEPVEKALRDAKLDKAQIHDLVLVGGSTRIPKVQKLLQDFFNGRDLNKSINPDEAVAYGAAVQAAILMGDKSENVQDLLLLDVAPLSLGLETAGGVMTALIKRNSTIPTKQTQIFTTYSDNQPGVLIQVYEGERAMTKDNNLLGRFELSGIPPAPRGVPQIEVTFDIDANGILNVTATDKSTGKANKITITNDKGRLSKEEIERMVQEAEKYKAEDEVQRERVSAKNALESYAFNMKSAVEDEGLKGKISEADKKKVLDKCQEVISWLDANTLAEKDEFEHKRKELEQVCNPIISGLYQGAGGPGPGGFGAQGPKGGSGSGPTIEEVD
method: SPR
measured endpoint: pKd
Keep in mind that pKd stands for -log10 of concentration in molar terms.

Input: What value of pKd has been recorded for this entry: DTDTPIVYNDRNLLD [Peptide N, the extreme carboxyl terminus (15 amino acids) of the Edmonston MV N protein]
Output: 5.40
